- TARGET_OR_TEST_SYSTEM: Rap guanine nucleotide exchange factor 3 (Homo sapiens) (UniProt O95398)
- Sequence (O95398 whole entry, looked up): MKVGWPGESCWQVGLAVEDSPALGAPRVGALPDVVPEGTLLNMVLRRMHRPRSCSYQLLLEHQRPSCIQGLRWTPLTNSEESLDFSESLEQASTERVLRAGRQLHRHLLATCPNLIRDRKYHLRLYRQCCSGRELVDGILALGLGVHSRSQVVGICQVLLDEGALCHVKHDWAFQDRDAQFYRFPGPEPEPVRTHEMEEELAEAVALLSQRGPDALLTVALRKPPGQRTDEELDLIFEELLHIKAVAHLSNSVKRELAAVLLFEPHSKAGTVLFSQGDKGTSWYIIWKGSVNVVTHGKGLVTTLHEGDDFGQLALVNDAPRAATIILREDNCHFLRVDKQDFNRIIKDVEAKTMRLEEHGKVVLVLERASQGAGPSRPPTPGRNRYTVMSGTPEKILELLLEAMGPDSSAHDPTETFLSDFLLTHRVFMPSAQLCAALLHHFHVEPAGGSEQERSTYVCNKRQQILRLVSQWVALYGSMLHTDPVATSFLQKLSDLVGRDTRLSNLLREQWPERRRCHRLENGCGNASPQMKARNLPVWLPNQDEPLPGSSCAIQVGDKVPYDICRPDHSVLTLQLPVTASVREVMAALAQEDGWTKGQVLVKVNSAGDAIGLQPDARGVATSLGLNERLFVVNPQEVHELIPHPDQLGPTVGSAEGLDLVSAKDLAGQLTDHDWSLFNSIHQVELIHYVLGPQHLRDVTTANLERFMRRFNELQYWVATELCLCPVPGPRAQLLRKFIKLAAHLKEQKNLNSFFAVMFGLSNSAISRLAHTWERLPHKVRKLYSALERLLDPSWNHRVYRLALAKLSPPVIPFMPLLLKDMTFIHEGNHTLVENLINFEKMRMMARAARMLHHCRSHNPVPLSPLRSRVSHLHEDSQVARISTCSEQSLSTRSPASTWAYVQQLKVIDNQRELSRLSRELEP
- ASSAY_NAME: Counterscreen qHTS for antagonist of cAMP-regulated guanine nucleotide exchange factor 3 (EPAC1) (AID 1645888);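 further: fluorescence loss as bound BODIPY-GDP is released from Rap1B; % of control where 0% means no effect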
- TEST_PARAMETERS: Rap1B-BODIPY-GDP nucleotide exchange, fluorescence; series mostly up to 154 µM
Records with an inconclusive call do not appear. Active and inactive are the calls of the source. The call rests on the fitted dose curve; in most records, active means well fitted inhibition curve with a large enough effect; inconclusive means small, poorly fitted or top-dose-only effect; inactive means no such curve, though single readings can be large or run the other way.
RESULT_TYPE: activity change, negative = inhibition

Below, 9 compounds whose answers are already recorded.
O=C(NN1C(=O)/C(=C/c2ccc(O)c(O)c2)SC1=S)c1ccccc1    inactive
COC(=O)c1ccc2nc(-c3ccccc3)c(Cc3ccc(C)cc3)n2c1    inactive
Cn1cc(C(c2ccccc2)c2ccc(Cl)s2)c2ccccc21 (stereo not given)    inactive
COC1C(CO)OC(n2c3c(Cl)cccc3c3c4c(c5c6cccc(Cl)c6[nH]c5c32)C(=O)NC4=O)C(O)C1O (stereo not given)    inactive
O=C(Nc1cccc(Cl)c1)c1c(NC(=O)C(F)(F)F)sc2c1CCCC2    inactive
COc1cccc(CC(=O)Nc2ccc(S(=O)(=O)Nc3nccs3)cc2)c1    -17.8% [at 30.8 µM] (inactive)
CCOc1c(OC)cccc1C1CC(=O)Nc2cc3c(cc21)OCCO3 (stereo not given)    inactive
COc1ccccc1C(=O)Nc1ccccc1C(=O)OCc1cc(=O)n2c(C)csc2n1    inactive
Cc1c(C(=O)NCCO)sc2nc3n(c(=O)c12)CCC3    inactive

Notebook: "COc1cc2cnc(-c3ccccc3)c(C(=O)c3ccc(F)cc3)c2cc1OC" , activity change, negative = inhibition read as -6.2% [at 30.8 µM] (inactive)
